measure: melting point

compound=Cc1cccc(Cl)c1Nc1nc2ccc(-c3c(C)cccc3C)cc2n2cncc12 measure="melting point" result="140 to 150 °C"
compound=COC(=O)C(C)(C)c1ccc(C(=O)Nc2cn3cc(-c4ccsc4)ccc3n2)cc1 measure="melting point" result="200 to 201 °C"
compound=CN(c1cccc2cc(-c3nccs3)[nH]c12)S(=O)(=O)c1cccnc1Cl measure="melting point" result="203 °C"
compound="CC(O)c1cc(S(N)(=O)=O)sc1Sc1ccc(O)cc1 (stereo not given)" measure="melting point" result="133 to 137 °C"
compound=O=C(NCc1ccc(C(=O)O)c(OCc2ccccc2)c1)OCc1ccccc1 measure="melting point" result="139 to 140 °C"

----------
Reported melting point values for the following compounds.
measure: melting point

compound=CCOC(=O)Cc1c(-c2ccccc2)c2cc(C)c(Cl)cc2oc1=O measure="melting point" result="132 to 133 °C"
compound="Fc1ccc2c(c1)[C@@H]1c3ccccc3N[C@@H]1C2 (relative stereo)" measure="melting point" result="116 to 117 °C"
compound="CC(N)c1ccc2c(c1)N(C(=O)OC(C)(C)C)CCC2 (stereo not given)" measure="melting point" result="61 to 64 °C"
compound=N#Cc1cc(-c2ccccc2)[nH]c1Sc1ccccc1N measure="melting point" result="159 to 160 °C"
compound=CC(C)(C)OC(=O)Nc1ccsc1CC(=O)O measure="melting point" result="70 to 72 °C"
compound="CCOC(=O)C(OC(C)=O)c1ccc(-c2ccc(-c3ccccc3)cc2)o1 (stereo not given)" measure="melting point" result="136 to 140 °C"
compound=CCCc1c2occc(=O)c2cc2c(=O)c(-c3ccc(C(=O)O)cc3)c(C(=O)O)oc12 measure="melting point" result="250 °C"
compound=COc1cc2c(Nc3ccc(Sc4nccn4C)c(Cl)c3)c(C#N)cnc2cc1NCCCN(C)C measure="melting point" result="198 to 200 °C"
compound=Cc1cc(N2CCOCC2)nc(N)c1N measure="melting point" result="97 to 108 °C"
compound="COC(C)(CCCCC(C)(C)O)c1cccc(C=Cc2cc(O)cc(O)c2)c1 (stereo not given)" measure="melting point" result="65 to 75 °C"

----------
measure: melting point

compound=CCCCc1oc2ccccc2c1C(=O)NCc1ccc2c(-c3ccc(Cl)cc3)c(OCC#N)ccc2c1 measure="melting point" result="154 to 158 °C"
compound=Cc1cc(CN2CCN(c3nc(C)c(C(=O)NCc4cccnc4)s3)C2=O)no1 measure="melting point" result="185 to 188 °C"
compound="COc1ccc(C(=O)NC(=O)NC2CN3CCC2CC3)cc1 (stereo unspecified)" measure="melting point" result="166 to 168 °C"
compound=CC(C)CCNC1=NS(=O)(=O)c2sc(Cl)cc2N1 measure="melting point" result="230 to 232 °C"
compound="COc1ccc(C2Sc3c(ccc4ccccc34)N(CCN(C)C)C(=O)C2OC(C)=O)cc1 (stereo unspecified)" measure="melting point" result="122 to 124 °C"
compound=Cc1cccc(CC(=O)c2ccnc(-c3ccc(C=O)cc3)c2)n1 measure="melting point" result="118 °C"
compound=COC(=O)C=NOCC(=O)C=CN(C)C measure="melting point" result="63 to 64 °C"
compound=CCn1cc(C(=O)O)c(=O)c2c(F)c(F)c(N3CCOCC3)c(F)c21 measure="melting point" result="281 to 283 °C"
compound=Nc1c(Br)cc(Nc2ncnc3cnc(N4CCC(N)CC4)nc23)cc1Br measure="melting point" result="204 to 206 °C"
compound=CCn1cc(C(=O)O)c(=O)cc1-c1ccc(OC)c(OC)c1 measure="melting point" result="232 to 234 °C"
compound=Cc1nc(SCc2ccc(C(=O)O)s2)sc1CC(=O)O measure="melting point" result="188 to 190 °C"
compound=CC(C)=CCOc1ccc(C(=O)C=Cc2cccnc2)c(O)c1 measure="melting point" result="177 to 179 °C"
compound=CCOC(=O)c1cc2cc(OC)c(OC)cc2s1 measure="melting point" result="84 to 85 °C"
compound="CNCC(O)c1cccn1C (stereo unspecified)" measure="melting point" result="64 to 66 °C"
compound=Cc1ccc(OCCCCCNc2cccc3c2C(=O)c2cccc4[nH]nc-3c24)cc1 measure="melting point" result="122 to 125 °C"
compound=Cc1cc(Cn2cncn2)cc2c1Cc1c(-c3ccsc3)n[nH]c1-2 measure="melting point" result="255 to 257 °C"
compound=O=c1c(Br)cc(Cc2ccccc2)cn1Cc1ccccc1 measure="melting point" result="89 to 90 °C"
compound=CCNC(=O)c1sc2ccccc2c1[Si](C)(C)C measure="melting point" result="131 to 134 °C"
compound=CCOC(=O)CCc1cn(Cc2cc(OCc3ccccc3)cc(OCc3csc(-c4cnccn4)n3)c2)cc1-c1ccccc1 measure="melting point" result="126 to 127 °C"
compound=COc1ccc(Cl)c(Oc2c(C=O)nc(N3CCOCC3)nc2NS(=O)(=O)c2ccc(C(C)C)cn2)c1 measure="melting point" result="194 °C"
compound=O=C(O)c1cc2cc(Br)ccc2nc1N[C@H](Cc1ccccc1)C(=O)O measure="melting point" result="140 to 141 °C"
